Tested on: HEK-293 cells
Experiment: HEK-293 cytotoxicity detection (CellTiter-Glo)
Format: cell-based
Details: Homo sapiens, 72 h incubation, read-out: HEK293
quantity: pIC50
Scale: negative log10 of molar concentration, which is what pIC50 denotes.

Can you look up the measured pIC50 of Cc1cc(-c2cc(Nc3ccc(N4CCC5(CCN(CC6CCN(c7ccc(N8CCC(=O)NC8=O)cc7)CC6)C5)CC4)cn3)ncn2)ccc1[C@@H](C)NC(=O)c1nc(C(C)(C)C)no1 for me?
5.73

Same question for Cc1cc(-c2cc(Nc3ccc(C4CN(CC5CCN(c6ccc(N7CCC(=O)NC7=O)cc6)CC5)C4)cn3)ncn2)ccc1[C@@H](C)NC(=O)c1nc(C(C)(C)C)no1 please.
5.54

---

System: HEK-293 cells
Test: HEK-293 cytotoxicity detection (CellTiter-Glo)
Format: cell-based
Details: Homo sapiens, 72 h incubation, read-out: HEK293
Protocol: The IC50 (DC50) value of a compound can be obtained by fitting the following equation Y=Bottom+(TOP−Bottom)/(1+((IC50/X)^hillslope)) wherein, X and Y are known values, and IC50, Hillslope, Top and Bottom are the parameters obtained by fitting with software. […] 25 μl of the CellTiter-Glo® Reagent [(Promega)—Cat No. G7572] was added to each well in the 96-well plate. […] Luminescence was recorded on BMG PheraStar with luminescence protocol. […]
pIC50: −log10 of the molar value. Counter-ions that a name gives are not always drawn.
quantity: pIC50

Entry under review: Cc1cc(-c2cc(Nc3ccc(N4CCN(C(=O)C5CCN(c6ccc(N7CCC(=O)NC7=O)cc6)C5)CC4)cn3)ncn2)ccc1[C@@H](C)NC(=O)c1nc(C(C)(C)C)no1 (stereo partly drawn) [Example 29] . Reported pIC50?
< 5.00

Moving on to the next compound: Cc1cc(-c2cc(Nc3ccc(N4CCN(CCc5cccc6c5oc(=O)n6C5CCC(=O)NC5=O)CC4)cn3)ncn2)ccc1[C@@H](C)NC(=O)c1nc(C(C)(C)C)no1 (stereo partly drawn) [Example 51, formate]
< 5.00

Also, Cc1cc(-c2cc(Nc3ccc(N4CCN(CC5CN(c6ccc(C7CCC(=O)NC7=O)cc6)C5)CC4)cn3)ncn2)ccc1[C@@H](C)NC(=O)c1nc(C(C)(C)C)no1 (stereo partly drawn) [Example 19] please.
< 5.00

---

Molecular target: BTK (Homo sapiens, UniProt Q06187)
Construct: endogenous in cells; host or cells: TMD-8 cells
Sequence (Q06187 whole entry): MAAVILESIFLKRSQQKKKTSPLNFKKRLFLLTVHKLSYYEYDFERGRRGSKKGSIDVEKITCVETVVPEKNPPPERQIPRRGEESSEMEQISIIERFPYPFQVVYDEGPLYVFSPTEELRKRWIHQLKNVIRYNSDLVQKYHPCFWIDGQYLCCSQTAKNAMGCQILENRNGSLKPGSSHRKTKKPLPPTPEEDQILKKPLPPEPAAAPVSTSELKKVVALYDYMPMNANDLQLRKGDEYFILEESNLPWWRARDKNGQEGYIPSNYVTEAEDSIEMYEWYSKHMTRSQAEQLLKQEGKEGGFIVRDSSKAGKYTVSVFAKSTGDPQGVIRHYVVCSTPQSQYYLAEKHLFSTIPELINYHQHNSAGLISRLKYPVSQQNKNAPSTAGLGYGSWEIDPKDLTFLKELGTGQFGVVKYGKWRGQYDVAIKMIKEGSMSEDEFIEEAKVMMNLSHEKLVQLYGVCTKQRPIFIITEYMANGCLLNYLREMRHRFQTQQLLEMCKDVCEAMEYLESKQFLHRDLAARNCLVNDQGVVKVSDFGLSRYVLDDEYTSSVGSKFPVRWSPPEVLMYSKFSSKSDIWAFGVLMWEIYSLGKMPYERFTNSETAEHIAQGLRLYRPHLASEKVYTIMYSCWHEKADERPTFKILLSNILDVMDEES
Assay: BTK degradation in TMD-8 cells (HTRF assay)
Type: cell-based
Conditions: 6 h treatment, HTRF BTK degradation IC50 (DC50)
Method: TMD-8 cells were treated with compounds diluted in 0.2% DMSO, dilution was done according to the following protocol: (1) making 500×stock solution in DMSO from 1 mM by 6-fold dilution, total 8 doses were included; (2) making 2×solution in cell culture medium by transferring 0.5 μl 500×stock solution into 125 μl medium; (3) adding 15 μl of 2×solution to cells for incubation of 6 h. […]
quantity: DC50 (nM)
Could you give me the number in nM? Just the number is fine.

DC50 of Cc1cc(-c2cc(Nc3ccc(N4CCN(CCc5cc(F)c(C6CCC(=O)NC6=O)c(F)c5)CC4)cn3)ncn2)ccc1[C@@H](C)NC(=O)c1nc(C(C)(C)C)no1 (some centres unmarked) on BTK (Homo sapiens, UniProt Q06187)?
1.75

Similarly, Cc1cc(-c2ccnc(Nc3ccc(N4CCN(CC5CCN(c6ccc(N7CCC(=O)NC7=O)cc6)CC5)CC4)cn3)n2)ccc1[C@@H](C)NC(=O)c1nc(C(C)(C)C)no1 ?
10.6

Would you mind doing Cc1cc(-c2cc(Nc3ccc(N4CCN(CCc5cccc6c5n(C)c(=O)n6C5CCC(=O)NC5=O)CC4)cn3)ncn2)ccc1[C@@H](C)NC(=O)c1nc(C(C)(C)C)no1 (some centres unmarked) as well?
0.632

# repeat for Cc1cc(CCN2CCN(c3ccc(Nc4cc(-c5ccc([C@@H](C)NC(=O)c6nc(C(C)(C)C)no6)c(C)c5)ncn4)nc3)CC2)ccc1C1CCC(=O)NC1=O (some centres unmarked)
1.44

Next up: Cc1cc(-c2cc(Nc3ccc(N4CCN(C5CN(C6CN(c7ccc(N8CCC(=O)NC8=O)cc7)C6)C5)CC4)cn3)ncn2)ccc1[C@@H](C)NC(=O)c1nc(C(C)(C)C)no1
0.209

Would you mind doing Cc1cc(-c2cc(Nc3ccc(N4CCN(C5CN(c6ccc(C7CCC(=O)NC7=O)cc6)C5)CC4)cn3)ncn2)ccc1[C@@H](C)NC(=O)c1nc(C(C)(C)C)no1 (some centres unmarked) as well?
2.47

Ok, now Cc1cc(-c2cc(Nc3ccc(N4CCN(C5CN(c6ccc(N7CCC(=O)NC7=O)cc6)C5)CC4)cn3)ncn2)ccc1[C@@H](C)NC(=O)c1nc(C2(C)CC2)no1
1.28

Thanks! And Cc1cc(-c2cc(Nc3ccc(N4CCN(CC5CN(c6ccc(N7CCC(=O)NC7=O)cc6)C5)CC4)cn3)ncn2)ccc1[C@@H](C)NC(=O)c1nc(C(C)(C)C)no1 ?
1.58

Further, for Cc1cc(-c2cc(Nc3ccc(N4CCN(C5CN(C6CN(c7ccc(C8CCC(=O)NC8=O)cc7)C6)C5)CC4)cn3)ncn2)ccc1[C@@H](C)NC(=O)c1nc(C(C)(C)C)no1 (some centres unmarked) ?
1.2

How about Cc1cc(-c2cc(Nc3ncc(N4CCN(CC5CCN(c6ccc(N7CCC(=O)NC7=O)cc6)CC5)CC4)cn3)ncn2)ccc1[C@@H](C)NC(=O)c1nc(C(C)(C)C)no1 ?
3.21

And what about the molecule Cc1cc(-c2cc(Nc3ccc(N4CCN(C5CN(C6CN(c7ccc8c(c7)C(=O)N(C7CCC(=O)NC7=O)C8=O)C6)C5)CC4)cn3)ncn2)ccc1[C@@H](C)NC(=O)c1nc(C(C)(C)C)no1 (some centres unmarked) ?
1.63
